Here, each record is paired with measured Population Pyknosed Nuclei (%) data.
Tested on: Fibroblast
PROTOCOL DETAILS: Multiplex assay against human fibroblast
Assay type: toxicity, cell-based
ASSAY SETUP: 24 h, 10 µM, compound concentration 10 uM, replicate 2
Kindly report the value followed by its unit.

Prompt: Need Population Pyknosed Nuclei (%), item CCCn1c(=O)c2[nH]c(C3CCCC3)nc2n(CCC)c1=O
Response: 24%

Prompt: Endpoint output: Population Pyknosed Nuclei (%) of CC(=O)NCCc1c(Cc2ccccc2)[nH]c2ccccc12 . Value?
Response: 12%

Prompt: Recorded Population Pyknosed Nuclei (%) for c1cc(OCCCN2CCCCC2)ccc1CN1CCCCC1 , please?
Response: 15%

Prompt: Name the reported Population Pyknosed Nuclei (%) value associated with the compound Cc1ccccc1C(=O)Nc1ccc(C(=O)N2CCCC(N(C)C)c3ccccc32)cc1.Cl (stereo not drawn)
Response: 20%

Prompt: Sample CN(C)CCCc1cc(C(=O)Nc2ccc(-c3ccncc3)cc2)ccc1O.Cl.Cl — what was its Population Pyknosed Nuclei (%)?
Response: 14%

Further cases:
Prompt: Item CN1CCN2c3ncccc3Cc3ccccc3C2C1 (stereo not drawn) has what recorded Population Pyknosed Nuclei (%)?
Response: 23%

Prompt: Which Population Pyknosed Nuclei (%) value belongs to O=C(O)Cc1ccccc1Nc1c(Cl)cccc1Cl ?
Response: 18%

Prompt: Query: Population Pyknosed Nuclei (%); subject: Cc1nc2ccc(Oc3ccc(F)cc3)cc2c(=O)n1C[C@H]1CCCN(C(C)C)C1.Cl
Response: 17%

###

Test system: HEK-293T
PROTOCOL DETAILS: Multiplex assay against HEK293T
Assay type: toxicity, cell-based
ASSAY SETUP: human, 12 h, 1 µM, compound concentration 1 uM, replicate 1
Catalogue of Population Mitotic Cells (%) readings, one per entry.
// note: answer is a bare numeric in %

Use these answered entries as a reference point.
Prompt: Entry Oc1c(CN2CCN(c3ccccn3)CC2)cc(Cl)c2cccnc12 : reported Population Mitotic Cells (%) = ?
Response: 70

Prompt: Requested read-out: Population Mitotic Cells (%). Entry: N#Cc1c(N)nc(SCc2csc(-c3ccc(Cl)cc3)n2)c(C#N)c1-c1ccc(OCCO)cc1
Response: 63

Prompt: So what's the measured Population Mitotic Cells (%) for this one? Cc1ccc(F)cc1C(=O)Nc1ccc(C(=O)N2Cc3cccn3Cc3ccccc32)c(Cl)c1
Response: 63

Prompt: Please look up its Population Mitotic Cells (%): c1cc(OCCCN2CCCCC2)ccc1CN1CCCCC1
Response: 63

Prompt: What measured Population Mitotic Cells (%) goes with Cc1nc2ccc(Oc3ccc(F)cc3)cc2c(=O)n1C[C@H]1CCCN(C(C)C)C1.Cl ?
Response: 60

Pending molecule:
Prompt: Quick check: Population Mitotic Cells (%) of CCNC1(C(N)=O)CCN(c2ncnc3c2nc(-c2ccccc2Cl)n3-c2ccc(Cl)cc2)CC1 ?
Response: 48

###

System: U2OS
PROTOCOL DETAILS: Multiplex assay against U2OS
Type: toxicity, cell-based
ASSAY SETUP: human, 24 h, 10 µM, compound concentration 10 uM, replicate 2
QUANTITY MEASURED: Population Mitochondria Different-Phenotype (%)
Quick note: give the figure in %, leave out the unit.

Prompt: Fill blank: measured Population Mitochondria Different-Phenotype (%) of the compound O=C(NCC(=O)N1CC[C@H](N[C@H]2CC[C@@](O)(c3ccc(-c4ncccn4)cn3)CC2)C1)c1cccc(C(F)(F)F)c1 is ____.
Response: 11

Further cases:
Prompt: Need Population Mitochondria Different-Phenotype (%) of O=C(O)c1cc2ccccc2c(Cc2c(O)c(C(=O)O)cc3ccccc23)c1O , thanks.
Response: 3

Prompt: # query: Population Mitochondria Different-Phenotype (%) of entry COc1cc(C(=O)N(CCCc2ccccc2)Cc2ccc(CC(=O)O)cc2)cc(OC)c1C
Response: 5
